Where do these numbers come from? They come from ChEMBL document CHEMBL1126631.

Target: Angiotensin II receptor (Rattus norvegicus, UniProt P29089+P25095+P35351)
Sequence (P29089 whole entry): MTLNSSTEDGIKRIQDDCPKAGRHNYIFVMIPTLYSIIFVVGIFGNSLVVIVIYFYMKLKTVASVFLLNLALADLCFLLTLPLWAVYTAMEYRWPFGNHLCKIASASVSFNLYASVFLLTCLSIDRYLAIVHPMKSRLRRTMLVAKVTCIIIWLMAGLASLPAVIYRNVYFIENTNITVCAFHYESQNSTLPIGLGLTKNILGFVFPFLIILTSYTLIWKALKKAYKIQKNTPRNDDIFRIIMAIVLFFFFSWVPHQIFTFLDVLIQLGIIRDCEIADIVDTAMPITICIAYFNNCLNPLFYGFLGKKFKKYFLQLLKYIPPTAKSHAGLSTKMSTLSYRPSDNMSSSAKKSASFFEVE
Sequence (P25095 whole entry): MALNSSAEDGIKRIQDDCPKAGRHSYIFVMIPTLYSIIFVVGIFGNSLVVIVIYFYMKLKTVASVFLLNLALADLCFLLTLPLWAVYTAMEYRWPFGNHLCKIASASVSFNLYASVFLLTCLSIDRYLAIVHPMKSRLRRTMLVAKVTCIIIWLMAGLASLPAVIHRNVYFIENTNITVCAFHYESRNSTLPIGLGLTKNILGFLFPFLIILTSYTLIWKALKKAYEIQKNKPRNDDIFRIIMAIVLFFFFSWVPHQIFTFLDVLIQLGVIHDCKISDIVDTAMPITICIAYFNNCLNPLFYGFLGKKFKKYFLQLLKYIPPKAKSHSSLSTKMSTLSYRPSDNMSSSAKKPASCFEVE
Sequence (P35351 whole entry): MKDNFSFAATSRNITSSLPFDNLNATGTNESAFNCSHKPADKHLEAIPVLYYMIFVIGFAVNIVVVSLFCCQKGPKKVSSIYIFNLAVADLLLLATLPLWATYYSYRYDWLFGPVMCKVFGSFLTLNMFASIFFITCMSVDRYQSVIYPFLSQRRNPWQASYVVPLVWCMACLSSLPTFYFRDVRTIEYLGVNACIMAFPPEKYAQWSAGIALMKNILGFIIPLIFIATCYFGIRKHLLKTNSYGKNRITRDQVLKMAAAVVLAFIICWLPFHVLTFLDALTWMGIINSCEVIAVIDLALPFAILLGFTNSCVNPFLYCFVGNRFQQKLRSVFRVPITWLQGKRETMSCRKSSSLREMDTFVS
Test: Antagonistic activity (pA2) was determined as the negative logarithm of the concentration required to reduce the response to an EC50 dose of ANG II to the response to half the EC50.
Type: functional
outcomeMeasure: pA2

[
  {
    "substanceSmiles": "CC[C@H](C)[C@H](NC(=O)[C@H](Cc1ccc(OC)cc1)NC(=O)[C@@H](NC(=O)[C@H](CCCN=C(N)N)NC(=O)CNC)C(C)C)C(=O)N[C@@H](Cc1c[nH]cn1)C(=O)N1CCCC[C@H]1C(=O)N[C@@H](Cc1ccccc1)C(=O)O",
    "resultNumber": 6.5
  },
  {
    "substanceSmiles": "CC[C@H](C)[C@H](NC(=O)[C@H](Cc1ccc(OC)cc1)NC(=O)[C@@H](NC(=O)[C@H](CCCN=C(N)N)NC(=O)CNC)C(C)C)C(=O)N[C@@H](Cc1c[nH]cn1)C(=O)N1CCC[C@H]1C(=O)N[C@@H](Cc1ccccc1)C(=O)O",
    "resultNumber": 7.7
  },
  {
    "substanceSmiles": "CC[C@H](C)[C@H](NC(=O)[C@@H]1CCN1C(=O)[C@H](Cc1c[nH]cn1)NC(=O)[C@@H](NC(=O)[C@H](Cc1ccc(O)cc1)NC(=O)[C@@H](NC(=O)[C@H](CCCN=C(N)N)NC(=O)C(C)(C)N)C(C)C)[C@@H](C)CC)C(=O)O",
    "resultNumber": 7.1
  },
  {
    "substanceSmiles": "CC[C@H](C)[C@H](NC(=O)[C@@H]1CCCCN1C(=O)[C@H](Cc1c[nH]cn1)NC(=O)[C@@H](NC(=O)[C@H](Cc1ccc(O)cc1)NC(=O)[C@@H](NC(=O)[C@H](CCCN=C(N)N)NC(=O)CNC)C(C)C)[C@@H](C)CC)C(=O)O",
    "resultNumber": 8.3
  },
  {
    "substanceSmiles": "CC[C@H](C)[C@H](NC(=O)[C@H](Cc1ccc(OC)cc1)NC(=O)[C@@H](NC(=O)[C@H](CCCN=C(N)N)NC(=O)CNC)C(C)C)C(=O)N[C@@H](Cc1c[nH]cn1)C(=O)N1CC[C@H]1C(=O)N[C@@H](Cc1ccccc1)C(=O)O",
    "resultNumber": 7.4
  }
]
